biological target: anti-steroid (unprocessed rabbit serum 540); assay: Competitive inhibition of binding of [3H] triamcinolone to anti-steroid, unprocessed rabbit serum 540; conditions: read-out: Competitive inhibition of binding of [3H] triamcinolone, Rabbit Serum 540 Unprocessed (apparent Kd)
Give measured Kd for each item. Keep answers brief.
One number for each entry, in µM.

Below, each entry is followed by its recorded Kd result.
• C[C@]12CCC(=O)C=C1CC[C@@H]1[C@@H]2[C@@H](O)C[C@@]2(C)[C@H]1CC[C@]2(O)C(=O)CO [Hydrocortisone] = 5
• C[C@@H]1C[C@H]2[C@@H]3CCC4=CC(=O)C=C[C@]4(C)[C@@]3(F)[C@@H](O)C[C@]2(C)[C@@]1(O)C(=O)CO = 0.12
• CC(=O)[C@H]1CC[C@H]2[C@@H]3CCC4=CC(=O)CC[C@]4(C)[C@H]3CC[C@]12C = 100

Proceed to the following item.
Name the recorded Kd of the compound listed here: `C[C@]12C[C@H](O)[C@H]3[C@@H](CCC4=CC(=O)CC[C@@]43C)[C@@H]1CC[C@@H]2C(=O)CO`
630

====

Give measured pKd for each item. Keep answers brief.
target: affinity purified antisteroid; experiment: Competitive inhibition of binding of [3H] triamcinolone to affinity purified antisteroid; design: species or system rabbit; conditions: read-out: Competitive inhibition of binding of [3H] triamcinolone, Affinity purified (apparent Kd)
One number for each entry, as −log10 of the molar value.

- C[C@]12C[C@H](O)[C@H]3[C@@H](CCC4=CC(=O)CC[C@@]43C)[C@@H]1CC[C@@H]2C(=O)CO: 4.00
- CC(=O)[C@H]1CC[C@H]2[C@@H]3CCC4=CC(=O)CC[C@]4(C)[C@H]3CC[C@]12C: 4.00
- C[C@@H]1C[C@H]2[C@@H]3CCC4=CC(=O)C=C[C@]4(C)[C@@]3(F)[C@@H](O)C[C@]2(C)[C@@]1(O)C(=O)CO: 6.21

Proceed to the following item.
Name the recorded pKd of the compound listed here: C[C@]12CCC(=O)C=C1CC[C@@H]1[C@@H]2[C@@H](O)C[C@@]2(C)[C@H]1CC[C@]2(O)C(=O)CO [Hydrocortisone]
4.00

====

biological target: antisteroid Fab fragments; assay: Competitive inhibition of binding of [3H] triamcinolone to antisteroid Fab fragments; conditions: read-out: Competitive inhibition of binding of [3H] triamcinolone, Rabbit serum 541 Fab fragments (apparent Kd)
Give measured Kd for each item. Keep answers brief.
One number for each entry, in µM.

Below, each entry is followed by its recorded Kd result.
* C[C@]12C[C@H](O)[C@H]3[C@@H](CCC4=CC(=O)CC[C@@]43C)[C@@H]1CC[C@@H]2C(=O)CO [Corticosterone] | 100
* C[C@]12CCC(=O)C=C1CC[C@@H]1[C@@H]2[C@@H](O)C[C@@]2(C)[C@H]1CC[C@]2(O)C(=O)CO [Hydrocortisone] | 100
* CC(=O)[C@H]1CC[C@H]2[C@@H]3CCC4=CC(=O)CC[C@]4(C)[C@H]3CC[C@]12C [Progesterone] | 100

Proceed to the following item.
Name the recorded Kd of the molecule listed here: C[C@@H]1C[C@H]2[C@@H]3CCC4=CC(=O)C=C[C@]4(C)[C@@]3(F)[C@@H](O)C[C@]2(C)[C@@]1(O)C(=O)CO [Dexamethasone]
0.63

The reported measurements were obtained from patent US4818684A.
